Form field: IC50 (one value per entry).
target-or-system: human serotonin transporter (Homo sapiens)
Sequence (P31645 whole entry): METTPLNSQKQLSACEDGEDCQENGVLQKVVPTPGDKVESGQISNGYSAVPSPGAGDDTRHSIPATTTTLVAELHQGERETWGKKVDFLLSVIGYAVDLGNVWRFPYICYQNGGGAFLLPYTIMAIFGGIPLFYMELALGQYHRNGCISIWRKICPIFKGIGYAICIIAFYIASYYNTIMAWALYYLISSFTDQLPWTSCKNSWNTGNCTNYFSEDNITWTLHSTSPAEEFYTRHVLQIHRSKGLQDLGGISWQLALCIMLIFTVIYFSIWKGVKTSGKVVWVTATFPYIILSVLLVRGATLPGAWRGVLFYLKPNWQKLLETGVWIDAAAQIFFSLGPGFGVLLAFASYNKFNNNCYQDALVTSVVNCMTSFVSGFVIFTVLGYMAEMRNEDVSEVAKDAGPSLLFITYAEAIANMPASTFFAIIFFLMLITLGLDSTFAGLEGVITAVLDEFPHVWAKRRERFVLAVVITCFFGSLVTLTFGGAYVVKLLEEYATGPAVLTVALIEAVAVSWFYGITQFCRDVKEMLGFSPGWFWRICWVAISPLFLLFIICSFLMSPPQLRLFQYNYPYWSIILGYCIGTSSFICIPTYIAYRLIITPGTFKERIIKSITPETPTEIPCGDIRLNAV
Structures can show the parent of a compound that is named as a salt.
Report the value in nM with no unit label.

// known answers, use as guide
COc1cccc(-c2cc(C(=O)NCCCN3CCN(c4cccc(Cl)c4Cl)CC3)c(C)[nH]2)c1 [Example 83, hydrochloride]: 59
CCCn1c(-c2ccccc2)cc(C(=O)NCCCCN2CCN(c3cccc(C)c3C)CC2)c1C [Example 33, hydrochloride]: 76
Cc1c(C(=O)NCCCN2CCN(c3cccc(Cl)c3Cl)CC2)c(C)n(C)c1-c1ccccc1 [Example 79, hydrochloride]: 80
CCn1c(-c2ccccc2)cc(C(=O)NCCCN2CCN(c3cccc(C)c3C)CC2)c1C: 35.9
Cc1[nH]c(-c2ccccc2)c(C)c1C(=O)NCCCN1CCN(c2cccc(Cl)c2Cl)CC1 [Example 77, hydrochloride]: 36

Prompt line: Record lookup: for human serotonin transporter (Homo sapiens), what IC50 belongs to `CCCCc1cc(C(=O)NCCCN2CCN(c3cccc(Cl)c3Cl)CC2)c(C)[nH]1` ?
Response line: 62

Prompt line: Record lookup: for human serotonin transporter (Homo sapiens), what IC50 belongs to `Cc1c(C(=O)NCCCN2CCN(c3cccc(Cl)c3Cl)CC2)cc(-c2cccnc2)n1C` ?
Response line: 92

Prompt line: Record lookup: for human serotonin transporter (Homo sapiens), what IC50 belongs to Cc1cccc(N2CCN(CCCCNC(=O)c3cc(-c4ccccc4)[nH]c3C)CC2)c1C [Example 40, hydrochloride] ?
Response line: 21

Prompt line: Record lookup: for human serotonin transporter (Homo sapiens), what IC50 belongs to `Cc1cccc(N2CCN(CCCNC(=O)c3cc(-c4ccccc4)[nH]c3C)CC2)c1C` ?
Response line: 77

Prompt line: Record lookup: for human serotonin transporter (Homo sapiens), what IC50 belongs to `Cc1c(Cl)cccc1N1CCN(CCCNC(=O)c2cc(C)n(-c3ccccc3)c2C)CC1` ?
Response line: 15

Prompt line: Record lookup: for human serotonin transporter (Homo sapiens), what IC50 belongs to CCCCn1c(-c2ccccc2)cc(C(=O)NCCCN2CCN(c3cccc(Cl)c3Cl)CC2)c1C [Example 71, hydrochloride] ?
Response line: 642

Prompt line: Record lookup: for human serotonin transporter (Homo sapiens), what IC50 belongs to Cc1[nH]c(-c2ccccn2)cc1C(=O)NCCCN1CCN(c2cccc(Cl)c2Cl)CC1 [Example 91, dihydrochloride] ?
Response line: 28

Prompt line: Record lookup: for human serotonin transporter (Homo sapiens), what IC50 belongs to `Cc1cc(C(=O)NCCCN2CCN(c3cccc(Cl)c3Cl)CC2)c(C)n1-c1ccccc1` ?
Response line: 20

Prompt line: Record lookup: for human serotonin transporter (Homo sapiens), what IC50 belongs to `CCCn1c(-c2ccccc2)cc(C(=O)NCCCN2CCN(c3cccc(Cl)c3Cl)CC2)c1Cl` ?
Response line: 1090

Prompt line: Record lookup: for human serotonin transporter (Homo sapiens), what IC50 belongs to COc1ccc(-c2cc(C(=O)NCCCN3CCN(c4cccc(Cl)c4Cl)CC3)c(C)[nH]2)cc1 [Example 73, hydrochloride] ?
Response line: 204

Prompt line: Record lookup: for human serotonin transporter (Homo sapiens), what IC50 belongs to Cc1[nH]c(-c2ccc(Cl)cc2)cc1C(=O)NCCN1CCN(c2cccc(Cl)c2Cl)CC1 [Example 67, hydrochloride] ?
Response line: 233

* * *

Form field: IC50 (one value per entry).
target-or-system: human recombinant 5-HT2C receptor (Homo sapiens, UniProt P28335)
Sequence (P28335 33-458): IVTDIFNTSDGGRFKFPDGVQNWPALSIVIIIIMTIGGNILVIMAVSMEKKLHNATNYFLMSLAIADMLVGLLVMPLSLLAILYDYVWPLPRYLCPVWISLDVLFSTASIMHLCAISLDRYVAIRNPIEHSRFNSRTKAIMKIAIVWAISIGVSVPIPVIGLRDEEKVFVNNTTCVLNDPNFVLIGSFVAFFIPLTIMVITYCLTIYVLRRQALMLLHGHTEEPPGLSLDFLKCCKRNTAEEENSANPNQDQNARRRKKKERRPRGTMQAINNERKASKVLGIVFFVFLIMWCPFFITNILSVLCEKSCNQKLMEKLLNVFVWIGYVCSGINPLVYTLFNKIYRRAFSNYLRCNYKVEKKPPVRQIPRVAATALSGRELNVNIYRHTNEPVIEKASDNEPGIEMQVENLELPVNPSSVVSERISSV
experiment: Binding affinity for serotonin 5-HT2C receptor ([3H]Mesulergine)
condition: CHO-K1 membranes, 1.3 nM [3H]Mesulergine
Counter-ions that a name gives are not always drawn.
Report the value in nM with no unit label.

Cc1c(Cl)cccc1N1CCN(CCCNC(=O)c2cc(C)n(-c3ccccc3)c2C)CC1: 127
COc1ccc(-c2cc(C(=O)NCCCN3CCN(c4cccc(Cl)c4Cl)CC3)c(C)n2C)cc1 [Example 74, hydrochloride]: 101

# evaluate next
Prompt line: Name the recorded IC50 for `CCCn1c(-c2ccccc2)cc(C(=O)NCCCN2CCN(c3cccc(Cl)c3Cl)CC2)c1Cl` .
Response line: 136
